For each record, write down the corresponding apparent KD of MS2 coat protein.
# Test system: MS2 coat protein
# ASSAY: apparent KD of MS2 coat protein, switch ON state; designed switch direction (-1 OFF switch, 1 ON switch): -1; higher = weaker reporter binding
# STUDY_CONDITIONS: FMN input: 0 or 200 uM; Eterna round: R93 (includes R88 designs)

*Q* Dear colleague, I am looking for the recorded apparent KD of MS2 coat protein of the following sequence: AGGUAGUCAGGAUAUACAAACAUGUCAAAAGACGUGAAAAAACAUGAGGAUCACCCAUGUAGAAGGGACUACCA [Mat - Exclusion 2 - JL mod - D21]
*A* 18 nM

*Q* What does the record list as apparent KD of MS2 coat protein for AAAAAACAUGAGGAUCACCCAUGUCAGGAUAUCUGUAUUCAAUCCUCGGAUUGAAUACAGAGAAGGGACAUAAA [Ex1: 605] ?
*A* 46.2 nM

*Q* Looking for the measured apparent KD of MS2 coat protein of AGUGAGUGAGGAUAUGACUGAAGAAUAAAAGAAAUAACAAGUCAGAAGGCACAUGAGGAUCACCCAUGUACACA [May 60] , can you help?
*A* 28.8 nM
